The origin of these recorded values is patent US20240254119A1.

- target-desc: PDGFRα (Homo sapiens, UniProt P16234)
- Construct: purchased Millipore 14-467 (lot 26321_ACTI)
- Sequence (P16234 24-1089): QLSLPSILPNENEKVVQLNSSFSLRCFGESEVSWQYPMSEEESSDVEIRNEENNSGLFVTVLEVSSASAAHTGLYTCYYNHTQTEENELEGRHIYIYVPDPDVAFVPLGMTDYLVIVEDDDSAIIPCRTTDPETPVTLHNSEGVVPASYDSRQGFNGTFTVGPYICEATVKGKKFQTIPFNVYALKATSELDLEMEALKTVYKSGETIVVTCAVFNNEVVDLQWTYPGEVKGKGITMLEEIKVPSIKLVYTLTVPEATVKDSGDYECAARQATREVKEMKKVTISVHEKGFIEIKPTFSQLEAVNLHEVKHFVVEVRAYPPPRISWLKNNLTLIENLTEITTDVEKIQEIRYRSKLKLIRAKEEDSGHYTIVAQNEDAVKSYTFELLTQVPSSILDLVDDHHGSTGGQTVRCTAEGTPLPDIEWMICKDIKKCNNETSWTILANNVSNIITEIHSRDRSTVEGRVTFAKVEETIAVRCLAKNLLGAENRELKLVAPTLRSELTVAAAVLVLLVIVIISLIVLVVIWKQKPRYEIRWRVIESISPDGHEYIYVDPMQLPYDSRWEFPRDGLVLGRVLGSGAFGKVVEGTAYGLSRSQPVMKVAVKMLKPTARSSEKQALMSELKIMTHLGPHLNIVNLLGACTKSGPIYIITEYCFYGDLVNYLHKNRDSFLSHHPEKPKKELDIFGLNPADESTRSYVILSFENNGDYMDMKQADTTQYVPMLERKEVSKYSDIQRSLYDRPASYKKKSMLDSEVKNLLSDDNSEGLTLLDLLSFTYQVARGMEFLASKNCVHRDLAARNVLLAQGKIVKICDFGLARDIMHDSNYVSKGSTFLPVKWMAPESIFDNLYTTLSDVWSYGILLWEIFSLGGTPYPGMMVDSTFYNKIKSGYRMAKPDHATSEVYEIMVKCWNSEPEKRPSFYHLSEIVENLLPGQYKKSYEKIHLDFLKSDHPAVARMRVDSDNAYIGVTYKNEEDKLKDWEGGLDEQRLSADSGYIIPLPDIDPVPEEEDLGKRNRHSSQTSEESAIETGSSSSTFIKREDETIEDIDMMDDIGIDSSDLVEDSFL
- assay-details: Caliper biochemical assay, PDGFRα
- test-settings: Table 6
readout: IC50

Examples from the recorded data:
Checklist item: IC50 tested on PDGFRα (Homo sapiens, UniProt P16234), entry COC(=O)N1CC(c2nc(-c3ccc(C)c(NC(=O)c4cnc5cc(OC[C@@H](C)O)ccn45)c3)no2)C1 , value?
0.05 to 0.5 µM

Checklist item: IC50 tested on PDGFRα (Homo sapiens, UniProt P16234), entry Cc1ccc(-c2noc([C@H]3C[C@@H]3F)n2)cc1NC(=O)c1cnc2cc(N3CCCCC3)ccn12 , value?
0.05 to 0.5 µM

Checklist item: IC50 tested on PDGFRα (Homo sapiens, UniProt P16234), entry Cc1ccc(-c2noc([C@H]3CCC(=O)N3)n2)cc1NC(=O)c1cnc2ccccn12 (racemic) , value?
5 to 30 µM

Checklist item: IC50 tested on PDGFRα (Homo sapiens, UniProt P16234), entry CCCS(=O)(=O)N1CC(c2nc(-c3ccc(Cl)c(NC(=O)c4cnc5ccccn45)c3)no2)C1 , value?
5 to 30 µM

Checklist item: IC50 tested on PDGFRα (Homo sapiens, UniProt P16234), entry Cc1nc(-c2ccc(C)c(NC(=O)c3cnc4cc(COCC(F)(F)F)ccn34)c2)no1 , value?
5 to 30 µM

Continuing:
Checklist item: IC50 tested on PDGFRα (Homo sapiens, UniProt P16234), entry Cc1ccc(-c2noc(C3CC(F)C3)n2)cc1NC(=O)c1cnc2ccccn12 (stereo not shown) , value?
0.05 to 0.5 µM

Checklist item: IC50 tested on PDGFRα (Homo sapiens, UniProt P16234), entry Cc1ccc(-c2noc(CC(=O)O)n2)cc1NC(=O)c1cnc2ccccn12 , value?
0.5 to 5 µM
